experiment: in vivo; design: species or system BALB/C nu/nu mice; conditions: BALB/C nu/nu, mouse, iv, 40 pmol, total radioactivity, Spleen uptake
Starred links: 1 amine or outer side, 2 acyl side, 3 side chain; linkers in the order of their positions; H or OH if unused. Non-standard residues stand in square brackets, D forms with d. Residues, ends and D or L forms follow the SMILES beside them. *: point of attachment. DOTAGA = O=C(O)CN1CCN(CC(=O)O)CCN(C(CCC(=O)*)C(=O)O)CCN(CC(=O)O)CC1; Sta = CC(C)C[C@H](N)[C@@H](O)CC(=O)O; X1 = O=C(CN1CCC(N[*:1])CC1)[*:2]; Sar = CNCC(=O)O
molecules and their reported tissue uptake at 4 h
State just the number; it will be interpreted in %ID/g.

Solved entries (count: 3):
Molecule	U	tissue uptake at 4 h
CC(C)C[C@H](NC(=O)C[C@H](O)[C@H](CC(C)C)NC(=O)[C@H](Cc1c[nH]cn1)NC(=O)CN(C)C(=O)[C@@H](NC(=O)[C@H](C)NC(=O)[C@H](Cc1c[nH]c2ccccc12)NC(=O)[C@H](CCC(N)=O)NC(=O)[C@@H](Cc1ccccc1)NC(=O)COCCOCCNC(=O)CCC(C(=O)O)N1CCN(CC(=O)O)CCN(CC(=O)O)CCN(CC(=O)O)CC1)C(C)C)C(N)=O (stereo partly shown) [[^111In]In-AU-RM26-M1, [^111In]In-DOTAGA-PEG2-[Sar^11]RM26, metal not drawn, reference compound]	%ID/g	0.08
CC(C)C[C@H](NC(=O)C[C@H](O)[C@H](CC(C)C)NC(=O)[C@H](Cc1c[nH]cn1)NC(=O)CN(C)C(=O)[C@@H](NC(=O)[C@H](C)NC(=O)[C@H](Cc1c[nH]c2ccccc12)NC(=O)[C@H](CCC(N)=O)NC(=O)[C@@H](Cc1ccccc1)NC(=O)[C@H](CCCNC(=N)N)NC(=O)COCCOCCNC(=O)CCC(C(=O)O)N1CCN(CC(=O)O)CCN(CC(=O)O)CCN(CC(=O)O)CC1)C(C)C)C(N)=O (stereo partly shown) [[^111In]In-AU-RM26-M3, metal not drawn]	%ID/g	0.08
CC(C)C[C@H](NC(=O)C[C@H](O)[C@H](CC(C)C)NC(=O)[C@H](Cc1c[nH]cn1)NC(=O)CN(C)C(=O)[C@@H](NC(=O)[C@H](C)NC(=O)[C@H](Cc1c[nH]c2ccccc12)NC(=O)[C@H](CCC(N)=O)NC(=O)[C@@H](Cc1ccccc1)NC(=O)CN1CCC(NC(=O)COCCOCCNC(=O)CCC(C(=O)O)N2CCN(CC(=O)O)CCN(CC(=O)O)CCN(CC(=O)O)CC2)CC1)C(C)C)C(N)=O (stereo partly shown) [[^111In]In-AU-RM26-M2, metal not drawn]	%ID/g	0.07

Moving on to the next molecule.
Lab note: CC(C)C[C@H](NC(=O)C[C@H](O)[C@H](CC(C)C)NC(=O)[C@H](Cc1c[nH]cn1)NC(=O)CN(C)C(=O)[C@@H](NC(=O)[C@H](C)NC(=O)[C@H](Cc1c[nH]c2ccccc12)NC(=O)[C@H](CCC(N)=O)NC(=O)[C@@H](Cc1ccccc1)NC(=O)CN1CCC(NC(=O)[C@H](CCCNC(=N)N)NC(=O)[C@H](CCCNC(=N)N)NC(=O)CCC(C(=O)O)N2CCN(CC(=O)O)CCN(CC(=O)O)CCN(CC(=O)O)CC2)CC1)C(C)C)C(N)=O (stereo partly drawn) [[^111In]In-AU-RM26-M4, metal not drawn] ({DOTAGA}-RR[X1][dF]QWAV[Sar]H[Sta]L-NH2) gave tissue uptake at 4 h of 0.23

Origin of values: paper PMC11054746
